assay-comment: Photostability assessed as compound remaining by HPLC analysis
Format: physicochemical
property-name: Stability (%)

INSERT INTO measurements (record_smiles, unit_symbol, value_reported) VALUES
  ('COC(=O)C(=C(/C)c1cc(OC)cc(OC)c1)/C(=C\c1ccccc1)C(=O)Nc1ccncc1.Cl', '%', 85),
  ('COC(=O)C(=C(/C)c1cc(OC)c(OC)c(OC)c1)/C(=C\c1ccccc1)C(N)=O', '%', 91),
  ('COC(=O)C(=C(/C)c1cc(OC)cc(OC)c1)/C(=C\c1ccccc1)C(=O)NN1CCN(C)CC1.Cl', '%', 91),
  ('COC(=O)C(=C(/C)c1cc(OC)cc(OC)c1)/C(=C\c1ccccc1)C(=O)NCc1ccncc1.Cl', '%', 96),
  ('COC(=O)C(=C(/C)c1cc(OC)cc(OC)c1)/C(=C\c1ccccc1)C(=O)Nc1cccnc1.Cl', '%', 88);
